Target: inactive non-phosphorylated p38α MAPK (Homo sapiens (Human), UniProt Q16539)
Sequence (Q16539 whole entry): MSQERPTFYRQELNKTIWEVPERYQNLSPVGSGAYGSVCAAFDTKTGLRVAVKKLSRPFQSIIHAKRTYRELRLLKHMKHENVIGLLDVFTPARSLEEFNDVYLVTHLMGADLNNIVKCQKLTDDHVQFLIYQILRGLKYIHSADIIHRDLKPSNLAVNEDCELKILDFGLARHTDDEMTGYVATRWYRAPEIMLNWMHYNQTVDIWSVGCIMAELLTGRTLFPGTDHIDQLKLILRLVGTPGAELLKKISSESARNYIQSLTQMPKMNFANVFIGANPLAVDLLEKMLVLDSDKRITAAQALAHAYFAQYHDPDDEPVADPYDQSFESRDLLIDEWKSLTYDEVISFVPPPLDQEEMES
Assay: Fluorescence polarisation (FP) binding assay, inactive enzyme
Settings: Table 1; read-out: Ki (μM, mean ± SEM) inactive p38α
Description: A number of compounds were also assessed for the inhibition of p38α MAPK activity (www.kinase-screen.mrc.ac.uk) in which a radioactive (^33P-labelled ATP) filter binding assay was used to directly measure phosphate incorporation. […] FP signals were measured with a PHERAstar microplate reader (BMG Labtech) using black, low-binding half-area 96 well plates (Corning). […]
measured.attribute: Ki (µM)

// known answers, use as guide
> print(dat)
                                   molecule  measured
1  Fc1ccc(-c2scc(CCCc3ccccc3)c2-c2ccncc2)cc1       1.5
2  OCCC#Cc1sc(-c2ccc(F)cc2)c(-c2ccncc2)c1CCCc1ccccc1       2.3

a: OC(CCc1ccccc1)c1csc(-c2ccc(F)cc2)c1-c1ccncc1 (stereo not drawn)
b: OCCC#Cc1nc(-c2ccc(F)cc2)c(-c2ccncc2)n1CCCc1ccccc1 [RWJ67657, reference compound]
Kindly compare a with b and tell me which has the lower Ki figure. // output: label of the selected item
b

* * *

Molecular target: active phosphorylated p38α MAPK (Homo sapiens (Human))
Sequence (Q16539 whole entry): as above
Assay: Fluorescence polarisation (FP) binding assay, active enzyme
Conditions: Table 1; read-out: Ki (μM, mean ± SEM) active p38α
measured.attribute: Ki (µM)

a: OCCC#Cc1sc(-c2ccc(F)cc2)c(-c2ccncc2)c1C(O)CCc1ccccc1 (stereo not drawn) [Compound 4.6]
b: OCCC#Cc1sc(-c2ccc(F)cc2)c(-c2ccncc2)c1CCCc1ccccc1 [Compound 4.1]
c: OCCC#Cc1nc(-c2ccc(F)cc2)c(-c2ccncc2)n1CCCc1ccccc1 [RWJ67657, reference compound]
d: OC(CCc1ccccc1)c1csc(-c2ccc(F)cc2)c1-c1ccncc1 (stereo not drawn) [Compound 4.17]
e: Fc1ccc(-c2scc(C#CCc3ccccc3)c2-c2ccncc2)cc1 [Compound 4.19]
Give the ascending ranking of the items by reported Ki. Return value: ordered labels per request.
c, b, d, a, e

* * *

Target: active phosphorylated p38α MAPK (Homo sapiens (Human))
Assay: Fluorescence polarisation (FP) binding assay, active enzyme
Conditions: Table 6; read-out: Ki ± SEM (μM) to active p38α
measured.attribute: Ki (µM)

// known answers, use as guide
> print(dat)
                                   compound  measured
1  O=C(NCCO)c1cccc(-c2c(C#CCCO)sc(-c3ccc(F)cc3)c2-c2ccncc2)c1 [Compound 3.37]         2
2  Nc1cccc(-c2c(C#CCCO)sc(-c3ccc(F)cc3)c2-c2ccncc2)c1 [Compound 3.39]       3.2

P: O=C(c1cc(-c2ccncc2)c(-c2ccc(F)cc2)s1)N1CCNCC1 [Compound 5.14]
Q: Fc1ccc(-c2sc(-c3ccco3)cc2-c2ccncc2)cc1 [Compound 5.18]
R: OCCC#Cc1nc(-c2ccc(F)cc2)c(-c2ccncc2)n1CCCc1ccccc1 [RWJ67657, reference compound]
S: Fc1ccc(-c2sccc2-c2ccncc2)cc1 [Compound 3.2]
Please list these in order of increasing Ki. Thank you! Return value: ordered labels per request.
R, S, P, Q

* * *

# Ki listing for each entry below
Target: inactive non-phosphorylated p38α MAPK (Homo sapiens (Human))
Assay: Fluorescence polarisation (FP) binding assay, inactive enzyme
Details: Table 6; read-out: Ki ± SEM (μM) to inactive p38α

// known answers, use as guide
> print(dat)
                                   compound  measured
1    CC(=O)c1cc(-c2ccncc2)c(-c2ccc(F)cc2)s1    6.4 µM
2  OCCC#Cc1sc(-c2ccc(F)cc2)c(-c2ccncc2)c1C(O)CCc1ccccc1 (stereo not drawn)   > 10 µM

We next turn to a different compound, shown below.
Entry OCCC#Cc1sc(-c2ccc(F)cc2)c(-c2ccncc2)c1-c1ccc(CO)cc1 , Ki reported as > 10 µM

* * *

Biological target: inactive non-phosphorylated p38α MAPK (Homo sapiens (Human))
Assay: Fluorescence polarisation (FP) binding assay, inactive enzyme
Conditions: Table 5; read-out: Ki ± SEM (μM) to inactive p38α MAPK
measured.attribute: Ki (µM)

// known answers, use as guide
> print(dat)
                                   compound                             tested.system  measured.attribute  measurement.unit  measured
1  Nc1nc(N)c(F)c(-c2cc(-c3ccncc3)c(-c3ccc(F)cc3)s2)c1F [Compound 5.21]  inactive non-phosphorylated p38α MAPK (Homo sapiens (Human))                  Ki                µM      0.47
2  Fc1ccc(-c2sc(I)cc2-c2ccncc2)cc1 [Compound 5.1]  inactive non-phosphorylated p38α MAPK (Homo sapiens (Human))                  Ki                µM       1.9
3  Nc1nc(F)c(F)c(-c2cc(-c3ccncc3)c(-c3ccc(F)cc3)s2)c1F [Compound 5.20]  inactive non-phosphorylated p38α MAPK (Homo sapiens (Human))                  Ki                µM      0.66
4  O=C(O)c1cc(-c2ccncc2)c(-c2ccc(F)cc2)s1 [Compound 5.12]  inactive non-phosphorylated p38α MAPK (Homo sapiens (Human))                  Ki                µM        17
5  O=C(c1ccccc1)c1cc(-c2ccncc2)c(-c2ccc(F)cc2)s1 [Compound 5.16]  inactive non-phosphorylated p38α MAPK (Homo sapiens (Human))                  Ki                µM         5

I: OCCCCc1cc(-c2ccncc2)c(-c2ccc(F)cc2)s1 [Compound 5.9]
II: O=C(CCCO)c1cc(-c2ccncc2)c(-c2ccc(F)cc2)s1 [Compound 5.10]
III: O=C(c1cc(-c2ccncc2)c(-c2ccc(F)cc2)s1)N1CCNCC1 [Compound 5.14]
IV: OCCC#Cc1nc(-c2ccc(F)cc2)c(-c2ccncc2)n1CCCc1ccccc1 [RWJ67657, reference compound]
V: OCCCC#Cc1cc(-c2ccncc2)c(-c2ccc(F)cc2)s1 [Compound 5.3]
Please list these in order of increasing Ki. Thank you! Return value: ordered labels per request.
IV, I, V, II, III
(IV: 0.21 µM, I: 0.98 µM, V: 1.7 µM, II: 2.7 µM, III: 6.3 µM)

a: Fc1ccc(-c2sc(-c3c(F)c(F)nc(F)c3F)cc2-c2ccncc2)cc1 [Compound 5.19]
b: CC(=O)c1cc(-c2ccncc2)c(-c2ccc(F)cc2)s1 [Compound 5.15]
Kindly compare a with b and tell me which has the lower Ki figure. // output: label of the selected item
a

A: NCCC#Cc1cc(-c2ccncc2)c(-c2ccc(F)cc2)s1 [Compound 5.7]
B: Fc1ccc(-c2sccc2-c2ccncc2)cc1 [Compound 3.2]
C: Fc1ccc(-c2sc(C#CCCN3CCOCC3)cc2-c2ccncc2)cc1 [Compound 5.8]
Please rank these compounds by Ki in descending order. Return value: ordered labels per request.
B, C, A

* * *

Target: active phosphorylated p38α MAPK (Homo sapiens (Human))
Assay: Fluorescence polarisation (FP) binding assay, active enzyme
Conditions: Table 6; read-out: Ki ± SEM (μM) to active p38α
measured.attribute: Ki (µM)

I: OCCC#Cc1sc(-c2ccc(F)cc2)c(-c2ccncc2)c1-c1ccc(CO)cc1
II: CCOC(=O)c1cc(-c2ccncc2)c(-c2ccc(F)cc2)s1
// pick larger Ki from pair: I vs II // output: label of the selected item
I
(I: 3.5 µM, II: 2.2 µM)

* * *

Target: p38α MAPK (Homo sapiens (Human))
Sequence (Q16539 whole entry): as above
Test: Radioactive (33P-labelled ATP) filter binding assay of p38α MAPK activity
Type: biochemical
Details: Table 6; read-out: IC50 (mean)
measured.attribute: IC50 (nM)

a: OCCC#Cc1sc(-c2ccc(F)cc2)c(-c2ccncc2)c1CCCc1ccccc1 [Compound 4.1]
b: OC(CCc1ccccc1)c1csc(-c2ccc(F)cc2)c1-c1ccncc1 (stereo not shown) [Compound 4.17]
// pick larger IC50 from pair: a vs b // output: label of the selected item
b

I: OCCC#Cc1sc(-c2ccc(F)cc2)c(-c2ccncc2)c1C(O)CCc1ccccc1 (stereo not shown) [Compound 4.6]
II: Fc1ccc(-c2scc(CCCc3ccccc3)c2-c2ccncc2)cc1 [Compound 4.18]
// pick larger IC50 from pair: I vs II // output: label of the selected item
I
(I: 4720 nM, II: 270 nM)

* * *

Biological target: active phosphorylated p38α MAPK (Homo sapiens (Human))
Test: Fluorescence polarisation (FP) binding assay, active enzyme
Conditions: Table 5; read-out: Ki ± SEM (μM) to active p38α MAPK
measured.attribute: Ki (µM)

// known answers, use as guide
> print(dat)
                                   compound  measurement.unit  measured
1           Fc1ccc(-c2sc(I)cc2-c2ccncc2)cc1                µM       2.3
2  O=C(c1ccco1)c1cc(-c2ccncc2)c(-c2ccc(F)cc2)s1                µM       2.5
3    O=C(O)c1cc(-c2ccncc2)c(-c2ccc(F)cc2)s1                µM       1.4
4  Fc1ccc(-c2sc(C#CCCN3CCOCC3)cc2-c2ccncc2)cc1                µM       2.5

P: OCCCC#Cc1cc(-c2ccncc2)c(-c2ccc(F)cc2)s1
Q: OCCC#Cc1nc(-c2ccc(F)cc2)c(-c2ccncc2)n1CCCc1ccccc1 [RWJ67657, reference compound]
Kindly compare P with Q and tell me which has the lower Ki figure. // output: label of the selected item
Q
(Q: 0.013 µM, P: 0.8 µM)

Where do these numbers come from? They come from patent US11273153B2.
